Reported TGI values follow for various compounds
Procedure Text: Cytotoxicity against human IGROV cells after 48 hrs by SRB assay
Assay type: functional
Give the value, in units of µM, as a plain number.

Consider the following illustrative entries.
{"Compound String": "C/C=C1\\NC(=O)[C@H](Cc2c(F)c(F)c(F)c(F)c2F)NC(=O)[C@@H](C(C)C)NC(=O)[C@@H]([C@H](C)CC)NC(=O)[C@H](NC(=O)[C@H](NC(=O)[C@H](CCCN)NC(=O)[C@H]2CCCN2C(=O)[C@H](NC(=O)[C@@H](NC(=O)[C@@H](NC(=O)[C@H](NC(=O)CC[C@@H](C)CC)C(C)C)[C@@H](C)O)C(C)C)C(C)C)[C@H](C)CC)[C@H](C)OC(=O)[C@H](C(C)C)NC1=O", "TGI [µM]": 1.74}
{"Compound String": "C/C=C1\\NC(=O)[C@H](Cc2ccccc2)NC(=O)[C@@H](C(C)C)NC(=O)[C@@H]([C@H](C)CC)NC(=O)[C@H](NC(=O)[C@H](NC(=O)[C@H](CCC(=O)O)NC(=O)[C@H]2CCCN2C(=O)[C@H](NC(=O)[C@@H](NC(=O)[C@@H](NC(=O)[C@H](NC(=O)CCCC(C)C)C(C)C)[C@@H](C)O)C(C)C)C(C)C)[C@H](C)CC)[C@H](C)OC(=O)[C@H](C(C)C)NC1=O", "TGI [µM]": 2.53}

Could you tell me which TGI is on file for C/C=C1\NC(=O)[C@H](Cc2ccccc2)NC(=O)[C@@H](C(C)C)NC(=O)[C@@H]([C@H](C)CC)NC(=O)[C@H](NC(=O)[C@H](NC(=O)[C@H](CCCN)NC(=O)[C@H]2CCCN2C(=O)[C@H](NC(=O)[C@@H](NC(=O)[C@@H](NC(=O)[C@H](NC(=O)CC[C@@H](C)CC)C(C)C)[C@@H](C)O)C(C)C)C(C)C)[C@H](C)CC)[C@H](C)OC(=O)[C@H](C(C)C)NC1=O ?
1.02

* * *

Test system: DU-145
Procedure Text: Cytotoxicity against human DU145 cells after 48 hrs by SRB assay
Type: functional, cell-based
Condition Details: Homo sapiens, DU-145, 48 h; read-out: GI50
In this section, each of the compounds is paired with its reported GI50.

Would you please look over these solved cases?
{"Compound": "C/C=C1\\NC(=O)[C@H](Cc2ccccc2)NC(=O)[C@@H](C(C)C)NC(=O)[C@@H]([C@H](C)CC)NC(=O)[C@H](NC(=O)[C@H](NC(=O)[C@H](CCCN)NC(=O)[C@H]2CCCN2C(=O)[C@H](NC(=O)[C@@H](NC(=O)[C@@H](NC(=O)[C@H](NC(=O)CCCCCCCCCC)C(C)C)[C@@H](C)O)C(C)C)C(C)C)[C@H](C)CC)[C@H](C)OC(=O)[C@H](C(C)C)NC1=O", "GI50": "183 nM"}
{"Compound": "CC[C@@H](C)[C@@H](NC(=O)[C@H](CCCN)NC(=O)[C@H]1CCCN1C(=O)[C@H](NC(=O)[C@@H](NC(=O)[C@@H](NC(=O)[C@H](NC(=O)CCCC(C)C)C(C)C)[C@@H](C)O)C(C)C)C(C)C)C(=O)N[C@H]1C(=O)N[C@H]([C@H](C)CC)C(=O)N[C@H](C(C)C)C(=O)N[C@@H](Cc2ccccc2)C(=O)NCC(=O)N[C@@H](C(C)C)C(=O)O[C@H]1C", "GI50": "1410 nM"}

Any idea what its GI50 is? The compound is C/C=C1\NC(=O)[C@H](Cc2ccccc2)NC(=O)[C@@H](C(C)C)NC(=O)[C@@H]([C@H](C)CC)NC(=O)[C@H](NC(=O)[C@H](NC(=O)[C@H](CCCN)NC(=O)[C@H]2CCCN2C(=O)[C@H](NC(=O)[C@@H](NC(=O)[C@@H](NC(=O)[C@H](NC(=O)CCCC(C)C)C(C)C)[C@@H](C)O)C(C)C)C(C)C)[C@H](C)CC)[C@H](C)OC(=O)[C@H](C(C)C)NC1=O [KAHALALIDE F]
931 nM

* * *

Test system: HT-29
Procedure Text: Cytotoxicity against human HT29 cells after 48 hrs by SRB assay
Format: functional, cell-based
Condition Details: Homo sapiens, HT-29, 48 h
# GI50 annotations
Quick note: give the figure in nM, leave out the unit.

Illustrative cases are given below, each with its answer.
{"Compound String": "C/C=C1\\NC(=O)[C@H](Cc2ccccc2)NC(=O)[C@@H](C(C)C)NC(=O)[C@@H]([C@H](C)CC)NC(=O)[C@H](NC(=O)[C@H](NC(=O)[C@H](CCCN)NC(=O)[C@H]2CCCN2C(=O)[C@H](NC(=O)[C@H](CCC2CCCCC2)NC(=O)[C@@H](NC(=O)[C@@H](CC2CCCCC2)NC(=O)CCCC(C)C)[C@@H](C)O)C(C)C)[C@H](C)CC)[C@H](C)OC(=O)[C@H](C(C)C)NC1=O", "GI50 / nM": 2900}
{"Compound String": "C/C=C1\\NC(=O)[C@H](Cc2ccccc2)NC(=O)[C@@H](C(C)C)NC(=O)[C@@H]([C@H](C)CC)NC(=O)[C@H](NC(=O)[C@H](NC(=O)[C@H](CCCN)NC(=O)[C@H]2CCCN2C(=O)[C@H](NC(=O)[C@@H](NC(=O)[C@@H](NC(=O)[C@H](NC(=O)CC[C@@H](C)CC)C(C)C)[C@@H](C)O)C(C)C)C(C)C)[C@H](C)CC)[C@H](C)OC(=O)[C@H](C(C)C)NC1=O", "GI50 / nM": 730}

Under HT-29: GI50 value of C/C=C1\NC(=O)[C@H](Cc2ccccc2)NC(=O)[C@@H](C(C)C)NC(=O)[C@@H]([C@H](C)CC)NC(=O)[C@H](NC(=O)[C@H](NC(=O)[C@H](CCCNC(=O)C(F)(F)F)NC(=O)[C@H]2CCCN2C(=O)[C@H](NC(=O)[C@@H](NC(=O)[C@@H](NC(=O)[C@H](NC(=O)CC[C@@H](C)CC)C(C)C)[C@@H](C)OC(=O)C(F)(F)F)C(C)C)C(C)C)[C@H](C)CC)[C@H](C)OC(=O)[C@H](C(C)C)NC1=O ?
329

* * *

Test system: K562
Procedure Text: Cytotoxicity against human K562 cells after 48 hrs by SRB assay
Type: functional
Condition Details: K562, 48 h
Quantity Measured: GI50 (nM)
Please respond with the number in nM and leave the unit unwritten.

Recorded GI50, per entry:
{"Compound String": "C/C=C1\\NC(=O)[C@H](Cc2ccccc2)NC(=O)[C@@H](C(C)C)NC(=O)[C@@H]([C@H](C)CC)NC(=O)[C@H](NC(=O)[C@H](NC(=O)[C@H](CCCN)NC(=O)[C@H]2CCCN2C(=O)[C@H](NC(=O)[C@@H](NC(=O)[C@@H](NC(=O)[C@H]2CCCN2C(=O)CCCC(C)C)[C@@H](C)O)C(C)C)C(C)C)[C@H](C)CC)[C@H](C)OC(=O)[C@H](C(C)C)NC1=O", "Readout Unit": "nM", "GI50": 1310}
{"Compound String": "C/C=C1\\NC(=O)[C@H](Cc2ccccc2)NC(=O)[C@@H](C(C)C)NC(=O)[C@@H]([C@H](C)CC)NC(=O)[C@H](NC(=O)[C@H](NC(=O)[C@H](CCCN)NC(=O)[C@H]2CCCN2C(=O)[C@H](NC(=O)[C@@H](NC(=O)[C@@H](NC(=O)[C@H](NC(=O)CCCCC(C)(F)F)C(C)C)[C@@H](C)O)C(C)C)C(C)C)[C@H](C)CC)[C@H](C)OC(=O)[C@H](C(C)C)NC1=O", "Readout Unit": "nM", "GI50": 2960}
{"Compound String": "C/C=C1\\NC(=O)[C@H](Cc2ccccc2)NC(=O)[C@@H](C(C)C)NC(=O)[C@@H]([C@H](C)CC)NC(=O)[C@H](NC(=O)[C@H](NC(=O)[C@H](CCCN)NC(=O)[C@H]2CCCN2C(=O)[C@H](NC(=O)[C@@H](NC(=O)[C@H](CC(C)C)NC(=O)[C@H](NC(=O)CCCC(C)C)C(C)C)C(C)C)C(C)C)[C@H](C)CC)[C@H](C)OC(=O)[C@H](C(C)C)NC1=O", "Readout Unit": "nM", "GI50": 542}
{"Compound String": "C/C=C1\\NC(=O)[C@@H](Cc2ccccc2)NC(=O)[C@H](C(C)C)NC(=O)[C@H]([C@H](C)CC)NC(=O)[C@@H](NC(=O)[C@@H](NC(=O)[C@@H](CCCN)NC(=O)[C@@H]2CCCN2C(=O)[C@@H](NC(=O)[C@H](NC(=O)[C@H](NC(=O)[C@@H](NC(=O)CCCC(C)C)C(C)C)[C@@H](C)O)C(C)C)C(C)C)[C@H](C)CC)[C@H](C)OC(=O)[C@H](C(C)C)NC1=O", "Readout Unit": "nM", "GI50": 2530}
{"Compound String": "C/C=C1\\NC(=O)[C@H](Cc2ccccc2Cl)NC(=O)[C@@H](C(C)C)NC(=O)[C@@H]([C@H](C)CC)NC(=O)[C@H](NC(=O)[C@H](NC(=O)[C@H](CCCN)NC(=O)[C@H]2CCCN2C(=O)[C@H](NC(=O)[C@@H](NC(=O)[C@@H](NC(=O)[C@H](NC(=O)CCCC(C)C)C(C)C)[C@@H](C)O)C(C)C)C(C)C)[C@H](C)CC)[C@H](C)OC(=O)[C@H](C(C)C)NC1=O", "Readout Unit": "nM", "GI50": 1850}
{"Compound String": "C/C=C1\\NC(=O)[C@H](Cc2ccccc2)NC(=O)[C@@H](C(C)C)NC(=O)[C@@H]([C@H](C)CC)NC(=O)[C@H](NC(=O)[C@H](NC(=O)[C@H](CCCN)NC(=O)[C@H]2CCCN2C(=O)[C@H](NC(=O)CCCC(C)C)C(C)C)[C@H](C)CC)[C@H](C)OC(=O)[C@H](C(C)C)NC1=O", "Readout Unit": "nM", "GI50": 3480}
{"Compound String": "C/C=C1\\NC(=O)[C@H](Cc2cccc(Cl)c2)NC(=O)[C@@H](C(C)C)NC(=O)[C@@H]([C@H](C)CC)NC(=O)[C@H](NC(=O)[C@H](NC(=O)[C@H](CCCN)NC(=O)[C@H]2CCCN2C(=O)[C@H](NC(=O)[C@@H](NC(=O)[C@@H](NC(=O)[C@H](NC(=O)CCCC(C)C)C(C)C)[C@@H](C)O)C(C)C)C(C)C)[C@H](C)CC)[C@H](C)OC(=O)[C@H](C(C)C)NC1=O", "Readout Unit": "nM", "GI50": 867}
{"Compound String": "C/C=C1\\NC(=O)[C@H](Cc2ccc(Cl)cc2)NC(=O)[C@@H](C(C)C)NC(=O)[C@@H]([C@H](C)CC)NC(=O)[C@H](NC(=O)[C@H](NC(=O)[C@H](CCCN)NC(=O)[C@H]2CCCN2C(=O)[C@H](NC(=O)[C@@H](NC(=O)[C@@H](NC(=O)[C@H](NC(=O)CCCC(C)C)C(C)C)[C@@H](C)O)C(C)C)C(C)C)[C@H](C)CC)[C@H](C)OC(=O)[C@H](C(C)C)NC1=O", "Readout Unit": "nM", "GI50": 696}
{"Compound String": "C/C=C1\\NC(=O)[C@H](Cc2ccccc2)NC(=O)[C@@H](C(C)C)NC(=O)[C@@H]([C@H](C)CC)NC(=O)[C@H](NC(=O)[C@H](NC(=O)[C@H](CCCN)NC(=O)[C@H]2CCCN2C(=O)[C@H](NC(=O)[C@H](Cc2ccccc2)NC(=O)[C@@H](NC(=O)[C@H](NC(=O)CCCC(C)C)C(C)C)[C@@H](C)O)C(C)C)[C@H](C)CC)[C@H](C)OC(=O)[C@H](C(C)C)NC1=O", "Readout Unit": "nM", "GI50": 1740}
{"Compound String": "C/C=C1\\NC(=O)[C@H](Cc2ccccc2)NC(=O)[C@@H](C(C)C)NC(=O)[C@@H]([C@H](C)CC)NC(=O)[C@H](NC(=O)[C@H](NC(=O)[C@H](CCCN)NC(=O)[C@H]2CCCN2C(=O)[C@H](NC(=O)[C@@H](NC(=O)[C@@H]2CCCN2C(=O)[C@H](NC(=O)CCCC(C)C)C(C)C)C(C)C)C(C)C)[C@H](C)CC)[C@H](C)OC(=O)[C@H](C(C)C)NC1=O", "Readout Unit": "nM", "GI50": 1480}

Requested field: GI50. Item: C/C=C1\NC(=O)[C@H](c2ccccc2)NC(=O)[C@@H](C(C)C)NC(=O)[C@@H]([C@H](C)CC)NC(=O)[C@H](NC(=O)[C@H](NC(=O)[C@H](CCCN)NC(=O)[C@H]2CCCN2C(=O)[C@H](NC(=O)[C@@H](NC(=O)[C@@H](NC(=O)[C@H](NC(=O)CCCC(C)C)C(C)C)[C@@H](C)O)C(C)C)C(C)C)[C@H](C)CC)[C@H](C)OC(=O)[C@H](C(C)C)NC1=O
1810
